- Test system: 889142-216-R-J1-PDC complex spheroid viability
- Assay Text: Anticancer human tumor 889142-216-R-J1-PDC patient-derived bladder carcinoma cell line growth inhibition [POLQ]
- Recorded Conditions: second compound 0.0316 µM; first compound 0.0316 µM; stronger effect = lower value
The following compounds are shown together with reported viability, T/C values.
Please give a number only; it is taken to be in %.

Worked examples, 8 compounds total:
>>> test_value("CNCc1ccc(-c2[nH]c3cc(F)cc4c3c2CCNC4=O)cc1 + COC1C(OC(N)=O)C(O)C(Oc2ccc3c(O)c(NC(=O)c4ccc(O)c(CC=C(C)C)c4)c(=O)oc3c2C)OC1(C)C")
120
>>> test_value("COc1cc2cc(C(=O)CCC(=O)O)sc2cc1OC + Nc1ccc(C#CCN(C(=O)Cc2ncc(C(F)(F)F)cc2C(F)(F)F)c2ccc(F)cc2)nn1")
88.3
>>> test_value("COc1cccc2c1C(=O)c1c(O)c3c(c(O)c1C2=O)CC(O)(C(=O)CO)CC3OC1CC(N)C(O)C(C)O1 (configuration not stated) + COC1C(OC(N)=O)C(O)C(Oc2ccc3c(O)c(NC(=O)c4ccc(O)c(CC=C(C)C)c4)c(=O)oc3c2C)OC1(C)C")
59.9
>>> test_value("COc1ccc([C@@H](O)c2cc(-c3ncnc4cc(N5CCOCC5)ccc34)c(F)cc2Cl)nn1 + Cc1cccc(N(C)C(=O)C2C(O)CCN2c2nc(C)cc(C(F)(F)F)c2C#N)c1")
123
>>> test_value("CCc1cc2c(N3CCc4c(cc(Cn5ccnc5)cc4-c4cn(C)nc4C(F)(F)F)C3=O)cc(C)nc2c(OC)n1 + COC1C(OC(N)=O)C(O)C(Oc2ccc3c(O)c(NC(=O)c4ccc(O)c(CC=C(C)C)c4)c(=O)oc3c2C)OC1(C)C")
112
>>> test_value("CC(C)n1c(=O)n(C)c2cnc3cc(F)c(-c4ccc(OCCCN5CCCCC5)nc4)cc3c21 + Cc1cccc(N(C)C(=O)C2C(O)CCN2c2nc(C)cc(C(F)(F)F)c2C#N)c1")
83.1
>>> test_value("C#Cc1c(F)ccc2cc(O)cc(-c3ncc4c(N5CC6CCC(C5)N6)nc(OCC56CCCN5CC(F)C6)nc4c3F)c12 (configuration not stated) + Nc1ccc(C#CCN(C(=O)Cc2ncc(C(F)(F)F)cc2C(F)(F)F)c2ccc(F)cc2)nn1")
101
>>> test_value("COc1cc(C2c3cc4c(cc3C(OC3OC5COC(C)OC5C(O)C3O)C3COC(=O)C23)OCO4)cc(OC)c1O (configuration not stated) + COC1C(OC(N)=O)C(O)C(Oc2ccc3c(O)c(NC(=O)c4ccc(O)c(CC=C(C)C)c4)c(=O)oc3c2C)OC1(C)C")
93.7

Form field viability, T/C, entry Nc1ccn(C2OC(CO)C(O)C2(F)F)c(=O)n1 (configuration not stated) + COC1C(OC(N)=O)C(O)C(Oc2ccc3c(O)c(NC(=O)c4ccc(O)c(CC=C(C)C)c4)c(=O)oc3c2C)OC1(C)C : 60.8

Form field viability, T/C, entry CCc1cc2c(N3CCc4c(cc(Cn5ccnc5)cc4-c4cn(C)nc4C(F)(F)F)C3=O)ccnc2c(OC)n1 + Cc1cccc(N(C)C(=O)C2C(O)CCN2c2nc(C)cc(C(F)(F)F)c2C#N)c1 : 110

---

- System: 889142-216-R-J1-PDC complex spheroid viability
- Assay Text: Anticancer human tumor 889142-216-R-J1-PDC cell line growth inhibition [POLQ];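 note: spheroids exposed to compounds for seven days; 100% = DMSO vehicle control viability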
- Recorded Conditions: second compound 1 µM; first compound 0.1 µM; stronger effect = lower value
Test Readout: viability, T/C (%)
Please give a number only; it is taken to be in %.

Worked examples, 8 compounds total:
>>> test_value("C=CCn1c(=O)c2cnc(Nc3ccc(N4CCN(C)CC4)cc3)nc2n1-c1cccc(C(C)(C)O)n1 + Cc1cccc(N(C)C(=O)C2C(O)CCN2c2nc(C)cc(C(F)(F)F)c2C#N)c1")
85.2
>>> test_value("O=C(c1cc(Cc2n[nH]c(=O)c3ccccc23)ccc1F)N1CCN(C(=O)C2CC2)CC1 + COC1C(OC(N)=O)C(O)C(Oc2ccc3c(O)c(NC(=O)c4ccc(O)c(CC=C(C)C)c4)c(=O)oc3c2C)OC1(C)C")
116
>>> test_value("CCCS(=O)(=O)Nc1ccc(F)c(C(=O)c2c[nH]c3ncc(-c4ccc(Cl)cc4)cc23)c1F + Nc1ccc(C#CCN(C(=O)Cc2ncc(C(F)(F)F)cc2C(F)(F)F)c2ccc(F)cc2)nn1")
81.6
>>> test_value("COc1ccc([C@@H](O)c2cc(-c3ncnc4cc(N5CCOCC5)ccc34)c(F)cc2Cl)nn1 + Nc1ccc(C#CCN(C(=O)Cc2ncc(C(F)(F)F)cc2C(F)(F)F)c2ccc(F)cc2)nn1")
72.1
>>> test_value("COc1ccc([C@@H](O)c2cc(-c3ncnc4cc(N5CCOCC5)ccc34)c(F)cc2Cl)nn1 + Cc1cccc(N(C)C(=O)C2C(O)CCN2c2nc(C)cc(C(F)(F)F)c2C#N)c1")
112
>>> test_value("O=c1[nH]cc(F)c(=O)[nH]1 + Nc1ccc(C#CCN(C(=O)Cc2ncc(C(F)(F)F)cc2C(F)(F)F)c2ccc(F)cc2)nn1")
101
>>> test_value("CC1COCCN1c1cc(-c2ccnn2C)c2ccnc(-c3ccn[nH]3)c2n1 (stereo unspecified) + Cc1cccc(N(C)C(=O)C2C(O)CCN2c2nc(C)cc(C(F)(F)F)c2C#N)c1")
59.2
>>> test_value("CC(C)n1c(=O)n(C)c2cnc3cc(F)c(-c4ccc(OCCCN5CCCCC5)nc4)cc3c21 + Nc1ccc(C#CCN(C(=O)Cc2ncc(C(F)(F)F)cc2C(F)(F)F)c2ccc(F)cc2)nn1")
80.3

Form field viability, T/C, entry CNCc1ccc(-c2[nH]c3cc(F)cc4c3c2CCNC4=O)cc1 + Nc1ccc(C#CCN(C(=O)Cc2ncc(C(F)(F)F)cc2C(F)(F)F)c2ccc(F)cc2)nn1 : 83.3

---

The following compounds are shown together with reported viability, T/C values.
- Test system: 889142-216-R-J1-PDC complex spheroid viability
- Assay Text: Anticancer human tumor 889142-216-R-J1-PDC cell line growth inhibition [POLQ];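 note: spheroids exposed to compounds for seven days; 100% = DMSO vehicle control viability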
- Recorded Conditions: second compound 0.1 µM; first compound 0.0316 µM; stronger effect = lower value
Please give a number only; it is taken to be in %.

>>> test_value("CCc1cc2c(N3CCc4c(cc(Cn5ccnc5)cc4-c4cn(C)nc4C(F)(F)F)C3=O)cc(C)nc2c(OC)n1 + COC1C(OC(N)=O)C(O)C(Oc2ccc3c(O)c(NC(=O)c4ccc(O)c(CC=C(C)C)c4)c(=O)oc3c2C)OC1(C)C")
130

Form field viability, T/C, entry COc1ccc([C@@H](O)c2cc(-c3ncnc4cc(N5CCOCC5)ccc34)c(F)cc2Cl)nn1 + Cc1cccc(N(C)C(=O)C2C(O)CCN2c2nc(C)cc(C(F)(F)F)c2C#N)c1 : 99.5

Form field viability, T/C, entry O=C(c1cc(Cc2n[nH]c(=O)c3ccccc23)ccc1F)N1CCN(C(=O)C2CC2)CC1 + Cc1cccc(N(C)C(=O)C2C(O)CCN2c2nc(C)cc(C(F)(F)F)c2C#N)c1 : 106

Form field viability, T/C, entry O=c1[nH]cc(F)c(=O)[nH]1 + Nc1ccc(C#CCN(C(=O)Cc2ncc(C(F)(F)F)cc2C(F)(F)F)c2ccc(F)cc2)nn1 : 91.1

Form field viability, T/C, entry CCc1cc2c(N3CCc4c(cc(Cn5ccnc5)cc4-c4cn(C)nc4C(F)(F)F)C3=O)ccnc2c(OC)n1 + Nc1ccc(C#CCN(C(=O)Cc2ncc(C(F)(F)F)cc2C(F)(F)F)c2ccc(F)cc2)nn1 : 115

Form field viability, T/C, entry COc1cccc2c1C(=O)c1c(O)c3c(c(O)c1C2=O)CC(O)(C(=O)CO)CC3OC1CC(N)C(O)C(C)O1 (stereo unspecified) + COC1C(OC(N)=O)C(O)C(Oc2ccc3c(O)c(NC(=O)c4ccc(O)c(CC=C(C)C)c4)c(=O)oc3c2C)OC1(C)C : 53.4

Form field viability, T/C, entry CC1COCCN1c1cc(C2(O)CC3CCC(C2)O3)c2cnn(-c3ccn[nH]3)c2n1 (stereo unspecified) + COC1C(OC(N)=O)C(O)C(Oc2ccc3c(O)c(NC(=O)c4ccc(O)c(CC=C(C)C)c4)c(=O)oc3c2C)OC1(C)C : 69.9

Form field viability, T/C, entry COc1cc(C2c3cc4c(cc3C(OC3OC5COC(C)OC5C(O)C3O)C3COC(=O)C23)OCO4)cc(OC)c1O (stereo unspecified) + Cc1cccc(N(C)C(=O)C2C(O)CCN2c2nc(C)cc(C(F)(F)F)c2C#N)c1 : 82.6

Form field viability, T/C, entry COc1cccc2c1C(=O)c1c(O)c3c(c(O)c1C2=O)CC(O)(C(=O)CO)CC3OC1CC(N)C(O)C(C)O1 (stereo unspecified) + Nc1ccc(C#CCN(C(=O)Cc2ncc(C(F)(F)F)cc2C(F)(F)F)c2ccc(F)cc2)nn1 : 71.8
